Test System: human recombinant full-length fatty acid synthase (FASN) (Homo sapiens, UniProt P49327)
Construct: human recombinant full-length fatty acid synthase (produced in-house in SF9 cells)
Sequence (P49327 whole entry): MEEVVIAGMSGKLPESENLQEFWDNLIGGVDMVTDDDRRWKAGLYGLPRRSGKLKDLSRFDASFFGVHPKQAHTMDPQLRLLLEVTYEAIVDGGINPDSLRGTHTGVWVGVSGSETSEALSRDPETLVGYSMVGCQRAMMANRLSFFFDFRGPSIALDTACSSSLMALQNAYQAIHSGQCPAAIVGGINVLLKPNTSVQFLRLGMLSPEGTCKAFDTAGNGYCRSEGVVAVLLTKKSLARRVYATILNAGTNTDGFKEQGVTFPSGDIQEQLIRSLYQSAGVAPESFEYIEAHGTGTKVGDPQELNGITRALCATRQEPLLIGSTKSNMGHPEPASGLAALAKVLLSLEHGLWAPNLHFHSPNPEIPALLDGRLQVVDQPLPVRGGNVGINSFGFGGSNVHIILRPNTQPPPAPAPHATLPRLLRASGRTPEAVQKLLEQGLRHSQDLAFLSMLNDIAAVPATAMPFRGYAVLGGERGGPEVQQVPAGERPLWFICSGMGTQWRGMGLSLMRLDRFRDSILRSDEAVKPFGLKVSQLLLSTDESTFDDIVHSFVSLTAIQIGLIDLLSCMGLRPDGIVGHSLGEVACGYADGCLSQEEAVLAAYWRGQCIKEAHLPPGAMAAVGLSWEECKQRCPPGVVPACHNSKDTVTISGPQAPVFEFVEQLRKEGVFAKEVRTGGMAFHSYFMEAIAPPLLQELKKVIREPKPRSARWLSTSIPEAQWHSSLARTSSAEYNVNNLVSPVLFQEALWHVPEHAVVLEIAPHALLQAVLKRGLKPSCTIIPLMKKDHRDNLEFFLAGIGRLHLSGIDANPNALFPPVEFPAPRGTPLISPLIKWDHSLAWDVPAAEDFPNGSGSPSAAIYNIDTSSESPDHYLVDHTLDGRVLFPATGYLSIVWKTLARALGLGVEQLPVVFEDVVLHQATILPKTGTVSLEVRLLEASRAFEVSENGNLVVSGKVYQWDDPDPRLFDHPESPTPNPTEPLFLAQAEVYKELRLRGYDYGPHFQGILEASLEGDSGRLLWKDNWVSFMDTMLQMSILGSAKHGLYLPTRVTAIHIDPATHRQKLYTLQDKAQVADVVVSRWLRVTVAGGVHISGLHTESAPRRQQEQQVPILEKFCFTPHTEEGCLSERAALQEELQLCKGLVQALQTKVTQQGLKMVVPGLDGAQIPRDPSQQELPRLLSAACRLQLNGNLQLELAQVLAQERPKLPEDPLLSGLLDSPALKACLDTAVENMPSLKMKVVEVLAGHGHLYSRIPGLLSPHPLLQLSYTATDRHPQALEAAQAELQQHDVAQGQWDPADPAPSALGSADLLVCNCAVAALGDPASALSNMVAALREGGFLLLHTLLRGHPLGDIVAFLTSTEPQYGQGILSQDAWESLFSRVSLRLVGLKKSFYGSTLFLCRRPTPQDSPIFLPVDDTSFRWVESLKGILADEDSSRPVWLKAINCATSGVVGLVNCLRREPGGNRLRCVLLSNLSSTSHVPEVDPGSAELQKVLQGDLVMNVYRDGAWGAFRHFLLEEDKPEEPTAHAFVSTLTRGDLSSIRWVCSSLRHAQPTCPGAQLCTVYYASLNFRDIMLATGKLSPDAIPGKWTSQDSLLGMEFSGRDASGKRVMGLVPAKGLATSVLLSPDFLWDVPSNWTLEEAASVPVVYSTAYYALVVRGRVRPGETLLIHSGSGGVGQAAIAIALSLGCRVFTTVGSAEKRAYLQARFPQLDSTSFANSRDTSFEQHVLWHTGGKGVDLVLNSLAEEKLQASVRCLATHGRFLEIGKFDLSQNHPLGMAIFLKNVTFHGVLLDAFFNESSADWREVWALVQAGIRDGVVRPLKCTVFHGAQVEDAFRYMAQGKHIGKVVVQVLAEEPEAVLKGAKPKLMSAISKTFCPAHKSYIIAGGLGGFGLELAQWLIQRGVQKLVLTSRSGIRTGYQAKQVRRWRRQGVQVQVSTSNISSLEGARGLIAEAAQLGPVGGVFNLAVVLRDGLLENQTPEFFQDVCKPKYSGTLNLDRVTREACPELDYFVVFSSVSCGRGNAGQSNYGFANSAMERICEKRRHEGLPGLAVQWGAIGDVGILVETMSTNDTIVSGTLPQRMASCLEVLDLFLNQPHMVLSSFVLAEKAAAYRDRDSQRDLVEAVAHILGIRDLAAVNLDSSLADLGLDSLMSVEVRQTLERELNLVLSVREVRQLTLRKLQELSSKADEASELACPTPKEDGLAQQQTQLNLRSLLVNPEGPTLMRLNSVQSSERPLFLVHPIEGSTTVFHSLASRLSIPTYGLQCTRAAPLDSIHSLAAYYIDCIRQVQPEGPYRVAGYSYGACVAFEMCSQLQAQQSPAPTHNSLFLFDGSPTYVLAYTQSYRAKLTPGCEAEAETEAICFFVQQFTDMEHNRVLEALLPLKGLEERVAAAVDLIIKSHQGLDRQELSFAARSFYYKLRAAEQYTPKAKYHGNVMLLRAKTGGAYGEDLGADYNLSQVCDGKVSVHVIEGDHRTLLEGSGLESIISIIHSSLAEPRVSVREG
Assay Comment: Biochemical activity testing of human fatty acid synthase FASN (NADPH fluorescence intensity enzyme assay)
Condition Label: 15 min pre-incubation, 30 min reaction at room temperature
pIC50: −log10 of the molar value.
Endpoint: pIC50

CCCC(=O)N1CCN(C(=O)c2ccc(-c3ccc4cnccc4c3)cc2)CC1 [Compound A6] = > 6.52
CCC(=O)N1CCN(C(=O)c2ccc(-c3ccc4cnccc4c3)cc2)CC1 [Compound A1] = > 6.52
CCC(=O)N1CCN(C(=O)c2ccc(-c3ccc4c[n+]([O-])ccc4c3)cc2)CC1 [Compound A7] = > 6.52
O=C(c1ccc(-c2ccc3cnccc3c2)cc1)N1CCN(C(=O)C2CC2)CC1 [Compound A3] = > 6.52
CC(=O)N1CCN(C(=O)c2ccc(-c3ccc4cnccc4c3)cc2)CC1 [Compound A2] = 5.52 to 6.52

q: Entry under review: CCCC(=O)N1CCN(C(=O)c2ccc(-c3ccc4cnc(OC)cc4c3)cc2)CC1 [Compound A4] . Reported pIC50?
a: 5.52 to 6.52

q: Recorded pIC50 of CCCCC(=O)N1CCN(C(=O)c2ccc(-c3ccc4cnccc4c3)cc2)CC1 [Compound A5] , please.
a: > 6.52
